Compiled Ki measurements on Carbonic anhydrase 14 (Homo sapiens, UniProt Q9ULX7) taken from the literature.
Sequence (Q9ULX7 whole entry): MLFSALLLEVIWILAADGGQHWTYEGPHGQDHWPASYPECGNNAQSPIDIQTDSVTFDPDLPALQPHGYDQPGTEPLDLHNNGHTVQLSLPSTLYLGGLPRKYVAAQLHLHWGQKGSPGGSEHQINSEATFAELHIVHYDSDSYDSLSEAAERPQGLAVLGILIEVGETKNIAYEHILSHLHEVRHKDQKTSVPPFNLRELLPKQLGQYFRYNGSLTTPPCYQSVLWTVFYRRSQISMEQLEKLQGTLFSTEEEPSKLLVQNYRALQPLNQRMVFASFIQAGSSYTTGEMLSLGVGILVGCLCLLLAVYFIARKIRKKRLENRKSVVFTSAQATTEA

Query: Given "CC(=O)OC[C@H]1O[C@@H](NC(=S)NNC(=O)c2ccc(S(N)(=O)=O)cc2)[C@H](OC(C)=O)[C@@H](OC(C)=O)[C@@H]1OC(C)=O" , state its recorded Ki.
Response: 10.3 nM

Query: Given "O=c1oc2c(O)c(O)cc3c(=O)oc4c(O)c(O)cc1c4c23" , state its recorded Ki.
Response: 8910 nM

Query: Given "NCCCCCCN" , state its recorded Ki.
Response: 640 nM

Query: Given "Cn1nc(S(N)(=O)=O)sc1=N" , state its recorded Ki.
Response: 245 nM

Query: Given "COc1ccc2oc(=O)c(C(=O)O)cc2c1" , state its recorded Ki.
Response: 39600 nM

Query: Given "O=S(=O)(NCCc1ccccc1)NCCc1ccccc1" , state its recorded Ki.
Response: > 200000 nM

Query: Given "NS(=O)(=O)c1ccc(CCNC(=S)Nc2ccc(-c3c4ccc(=O)cc-4oc4cc(O)ccc34)c(C(=O)O)c2)cc1" , state its recorded Ki.
Response: 33 nM

Query: Given "CCOc1ccc2c(c1)CCN=C2c1ccc(S(N)(=O)=O)cc1" , state its recorded Ki.
Response: 17.9 nM

Query: Given "CC(=O)OC[C@H]1O[C@@H](O[C@H]2[C@H](OC(C)=O)[C@@H](OC(C)=O)[C@H](NC(=S)NCCc3ccc(S(N)(=O)=O)cc3)O[C@@H]2COC(C)=O)[C@H](OC(C)=O)[C@@H](OC(C)=O)[C@H]1OC(C)=O" , state its recorded Ki.
Response: 9.1 nM
